# Method Summary: Percentage recovery in rat hepatic microsomal fractions under oxidative conditions after 1 hour
# Assay type: ADME
# Condition Notes: liver microsomes, read-out: Recovery
Readout Name: remaining at 1 h (%)
# unit: % | format: bare number

// lookup remaining at 1 h for CS(=O)(=O)c1ccc(-c2c(-c3ccccc3)nc3sccn23)cc1
75

---

# Organism: Macaca mulatta
# Method Summary: Percentage recovery in rhesus monkey hepatic microsomal fractions under oxidative conditions after 1 hour
# Condition Notes: liver microsomes
Readout Name: remaining at 1 h
Please state the number and follow it with the unit.

// lookup remaining at 1 h for CS(=O)(=O)c1ccc(-c2c(-c3ccccc3)nc3sccn23)cc1
65%
